The reported measurements were obtained from patent US20210387968A1.

# testedSystem: Pol theta polymerase domain (residues 1819-2590) (Homo sapiens, UniProt O75417)
# Sequence (O75417 1819-2590): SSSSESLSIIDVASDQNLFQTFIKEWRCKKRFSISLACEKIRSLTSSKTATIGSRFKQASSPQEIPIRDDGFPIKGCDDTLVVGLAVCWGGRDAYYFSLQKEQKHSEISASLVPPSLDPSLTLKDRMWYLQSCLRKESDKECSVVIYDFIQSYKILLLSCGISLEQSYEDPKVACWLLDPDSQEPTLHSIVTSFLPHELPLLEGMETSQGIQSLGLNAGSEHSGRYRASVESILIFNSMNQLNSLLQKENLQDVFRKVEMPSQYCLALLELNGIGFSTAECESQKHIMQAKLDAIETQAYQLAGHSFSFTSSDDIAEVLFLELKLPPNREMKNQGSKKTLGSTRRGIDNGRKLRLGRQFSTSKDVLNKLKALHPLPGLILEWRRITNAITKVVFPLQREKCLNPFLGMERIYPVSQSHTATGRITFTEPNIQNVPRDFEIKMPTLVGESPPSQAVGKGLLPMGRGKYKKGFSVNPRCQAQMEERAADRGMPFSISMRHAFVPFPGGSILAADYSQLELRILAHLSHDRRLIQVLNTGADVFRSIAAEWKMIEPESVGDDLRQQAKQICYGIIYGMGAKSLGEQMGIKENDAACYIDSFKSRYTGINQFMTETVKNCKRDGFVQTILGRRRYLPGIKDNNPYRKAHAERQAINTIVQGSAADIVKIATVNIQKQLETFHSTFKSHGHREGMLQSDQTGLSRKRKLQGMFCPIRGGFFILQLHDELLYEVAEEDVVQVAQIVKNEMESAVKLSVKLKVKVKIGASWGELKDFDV
assayReadout: IC50

Field request: IC50 | item: `N#Cc1c(C(F)(F)F)cc(C(F)(F)F)nc1NCc1ncccc1-c1ccc(Br)cc1`
< 200 nM

Give its IC50 value. Item: `N#Cc1c(C(F)(F)F)cc(C(F)(F)F)nc1OCc1ncccc1-c1ccc(F)cc1`
< 200 nM

Reported IC50 for CC(Nc1nc(C(F)(F)F)cc(C(F)(F)F)c1C#N)c1nccn1-c1ccc(F)cc1 (stereo not drawn) : what is it?
< 200 nM

Could you tell me which IC50 is on file for `N#Cc1ccc(-c2ccc(F)cc2)c(CNc2nc(C(F)(F)F)cc(C(F)(F)F)c2C#N)n1` ?
< 200 nM

What measured IC50 goes with `Fc1ccc(-n2ccnc2CNc2cc(Cl)cc(C(F)(F)F)c2)cc1` ?
< 200 nM

I have this molecule here, `Cc1nc(OCc2nccn2-c2ccccc2)c(C#N)c(C)c1Cl` , and I need its recorded IC50.
500 to 1000 nM

Entry `N#Cc1c(C(F)(F)F)cc(C(F)(F)F)nc1NCc1ncncc1-c1ccncc1` : reported IC50 = ?
1000 to 10000 nM

If you can, please state the reported IC50 value of `N#Cc1c(C(F)(F)F)cc(C(F)(F)F)nc1NCc1n[nH]cc1-c1ccc(F)cc1` .
1000 to 10000 nM

May I ask what IC50 has been recorded for `N#Cc1c(C(F)(F)F)cc(C(F)(F)F)nc1NCc1nccnc1-c1ccc(F)cc1` ?
< 200 nM

Sample `Cn1cc(-c2ccc(F)cc2)c(CNc2nc(C(F)(F)F)cc(C(F)(F)F)c2C#N)n1` — what was its IC50?
1000 to 10000 nM

IC50 lookup needed for `N#Cc1c(C(F)(F)F)cc(C(F)(F)F)nc1NCc1nncn1-c1ccc(F)cc1` , thanks.
< 200 nM

# lookup: IC50 of `Cc1nc(NCc2nccn2-c2ccccc2)c(C#N)c(C)c1Cl`
< 200 nM
